Origin of measurements: ChEMBL document CHEMBL2413055

test-target: 5-hydroxytryptamine receptor 6 (Homo sapiens)
method: Antagonist activity at recombinant human 5-HT6 receptor expressed in HEK293 cells assessed as 5-HT-induced intracellular cAMP production after 30 mins
Assay type: functional, cell-based
pKi: −log10 of the molar value.
assay-readout: pKi

| structure | pKi |
| --- | --- |
| CN(C)c1cc(N2CCNCC2)ccc1S(=O)(=O)c1ccccc1 | 7.52 |

P: COc1ccccc1S(=O)(=O)c1ccccc1
Q: Nc1cc(N2CCNCC2)ccc1S(=O)(=O)c1ccccc1
R: Nc1ccc(S(=O)(=O)c2ccc(N)cc2)cc1
S: CNc1cc(-c2cccnc2)ccc1S(=O)(=O)c1ccccc1
T: CC(=O)Nc1cc(N2CCNCC2)ccc1S(=O)(=O)c1ccccc1
[Q] Arrange these 5 compounds in increasing order of pKi. List the labels in the requested order.
[A] P, R, S, T, Q
(P: 6.06, R: 6.74, S: 7.32, T: 8.08, Q: 8.78)

* * *

test-target: 5-hydroxytryptamine receptor 6 (Homo sapiens, UniProt P50406)
Sequence (P50406 whole entry): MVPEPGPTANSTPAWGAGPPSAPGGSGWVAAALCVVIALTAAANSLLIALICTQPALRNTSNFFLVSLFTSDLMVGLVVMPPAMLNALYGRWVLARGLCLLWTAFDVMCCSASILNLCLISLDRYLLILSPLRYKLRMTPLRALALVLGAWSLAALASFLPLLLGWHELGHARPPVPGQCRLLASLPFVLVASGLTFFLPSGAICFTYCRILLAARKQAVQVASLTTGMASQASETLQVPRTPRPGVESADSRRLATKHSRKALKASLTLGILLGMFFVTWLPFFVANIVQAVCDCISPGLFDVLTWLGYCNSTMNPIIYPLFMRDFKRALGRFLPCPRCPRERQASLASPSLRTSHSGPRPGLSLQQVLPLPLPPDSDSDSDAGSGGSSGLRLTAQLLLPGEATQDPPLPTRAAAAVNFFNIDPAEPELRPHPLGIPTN
method: Antagonist activity at recombinant human 5-HT6 receptor expressed in HEK293 cells assessed as 5-HT-induced intracellular cAMP production after 30 mins
Format: functional, cell-based
assay-readout: Ki (nM)

Some solved entries appear below for comparison.
| molecule | test-target | Ki / nM |
| --- | --- | --- |
| CNc1ccccc1S(=O)(=O)c1ccccc1 | 5-hydroxytryptamine receptor 6 (Homo sapiens, UniProt P50406) | 24.3 |
| Nc1ccccc1S(=O)(=O)c1ccccc1 | 5-hydroxytryptamine receptor 6 (Homo sapiens, UniProt P50406) | 491 |
| CN(C)c1ccccc1S(=O)(=O)c1ccccc1 | 5-hydroxytryptamine receptor 6 (Homo sapiens, UniProt P50406) | 2040 |
| O=S(=O)(c1ccccc1)c1ccccc1 [(PHENYLSULFONYL)BENZENE] | 5-hydroxytryptamine receptor 6 (Homo sapiens, UniProt P50406) | 1600 |
| O=S(=O)(c1ccccc1)c1ccc(N2CCNCC2)cc1 | 5-hydroxytryptamine receptor 6 (Homo sapiens, UniProt P50406) | 10.8 |

1: Nc1ccc(S(=O)(=O)c2ccc(N)c(N)c2)cc1
2: CNc1cc(-c2ccccc2)ccc1S(=O)(=O)c1ccccc1
[Q] Please indicate which has the smaller reported Ki: 1 , or 2 . Mark your selection by writing its label.
[A] 2
